- measurementTarget: c-Src kinase (Homo sapiens, UniProt P12931)
- Construct: purchased Millipore (KinaseProfiler Service)
- Sequence (P12931 whole entry): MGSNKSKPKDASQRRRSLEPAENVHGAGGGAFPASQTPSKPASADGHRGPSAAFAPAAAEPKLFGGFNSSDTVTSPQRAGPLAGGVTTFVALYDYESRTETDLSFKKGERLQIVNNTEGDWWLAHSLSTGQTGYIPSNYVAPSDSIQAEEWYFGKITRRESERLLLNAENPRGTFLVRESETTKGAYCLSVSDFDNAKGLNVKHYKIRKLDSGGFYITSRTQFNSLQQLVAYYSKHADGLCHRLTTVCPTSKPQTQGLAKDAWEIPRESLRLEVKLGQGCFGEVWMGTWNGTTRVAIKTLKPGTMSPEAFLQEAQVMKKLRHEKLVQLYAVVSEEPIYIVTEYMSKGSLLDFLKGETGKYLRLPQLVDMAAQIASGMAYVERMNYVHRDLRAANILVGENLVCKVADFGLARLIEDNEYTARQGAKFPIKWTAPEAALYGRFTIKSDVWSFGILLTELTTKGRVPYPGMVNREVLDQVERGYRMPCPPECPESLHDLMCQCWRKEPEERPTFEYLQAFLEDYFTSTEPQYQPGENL
- assayInfo: KinaseProfiler kinase inhibition assay, c-Src
- Assay type: biochemical
- conditions: 1 μM compound; read-out: % Inhibition @1 μM cSrc
observationType: inhibition at 1 µM (%)

smilesNotation: CNC(=O)c1ccc(Nc2cc(Oc3ccc4[nH]c(C)cc4c3F)ncn2)cc1
displayUnit: %
inhibition at 1 µM: 30

A: Cc1cc2c(F)c(Oc3cc(Nc4ccc(N5CCN(C)CC5)cn4)ncn3)ccc2[nH]1
B: Cc1cc2c(F)c(Oc3ncnc(Nc4ccc(N5CCN(C)CC5)cc4)c3C)ccc2[nH]1
q: # argmax over inhibition at 1 µM for candidates A and B Reply briefly: the label of your chosen item.
a: A

* * *

Measured GI50 values are reported for all entries that follow.
- System: Kato III
- assayInfo: CellTiterblue viability, 72 hr, Kato III
- Format: cell-based
- conditions: Homo sapiens, Kato III cells

smilesNotation: COc1c(Nc2ccc(N3CCN(C)CC3)cc2)ncnc1Oc1ccc2[nH]c(C)cc2c1F
GI50: > 500 nM

smilesNotation: Cc1cc2c(F)c(Oc3ncnc(Nc4ccc(N5CCN(C)CC5)cn4)c3Cl)ccc2[nH]1
GI50: 229 nM

smilesNotation: CNC(=O)c1ccc(Nc2cc(Oc3ccc4[nH]c(C)cc4c3F)ncn2)cc1
GI50: > 500 nM

q: Could you share what GI50 was measured for Cc1cc2c(F)c(Oc3ncnc(Nc4ccc(N5CCNCC5)cc4)c3F)ccc2[nH]1 , tested on Kato III?
a: > 500 nM

q: Please answer likewise for CCN1CCN(c2ccc(Nc3ncnc(Oc4cc(F)c5[nH]c(C)cc5c4F)c3C#N)cc2)CC1
a: 26 nM

q: Let us now turn to CCN1CCN(c2ccc(Nc3cc(Oc4cc(F)c5[nH]c(C)cc5c4F)ncn3)cc2)CC1
a: 207 nM

q: Also check Cc1cc2c(F)c(Oc3ncnc(Nc4ccc(N5CCN(C)CC5)cn4)c3N)ccc2[nH]1
a: > 500 nM

q: Query Cc1cc2c(F)c(Oc3ncnc(Nc4ccc(N5CCN(C)CC5)cc4)c3N)ccc2[nH]1 next
a: > 500 nM

* * *

- measurementTarget: Tie2 (Homo sapiens, UniProt Q02763)
- Construct: purchased Millipore (KinaseProfiler Service)
- Sequence (Q02763 23-1124): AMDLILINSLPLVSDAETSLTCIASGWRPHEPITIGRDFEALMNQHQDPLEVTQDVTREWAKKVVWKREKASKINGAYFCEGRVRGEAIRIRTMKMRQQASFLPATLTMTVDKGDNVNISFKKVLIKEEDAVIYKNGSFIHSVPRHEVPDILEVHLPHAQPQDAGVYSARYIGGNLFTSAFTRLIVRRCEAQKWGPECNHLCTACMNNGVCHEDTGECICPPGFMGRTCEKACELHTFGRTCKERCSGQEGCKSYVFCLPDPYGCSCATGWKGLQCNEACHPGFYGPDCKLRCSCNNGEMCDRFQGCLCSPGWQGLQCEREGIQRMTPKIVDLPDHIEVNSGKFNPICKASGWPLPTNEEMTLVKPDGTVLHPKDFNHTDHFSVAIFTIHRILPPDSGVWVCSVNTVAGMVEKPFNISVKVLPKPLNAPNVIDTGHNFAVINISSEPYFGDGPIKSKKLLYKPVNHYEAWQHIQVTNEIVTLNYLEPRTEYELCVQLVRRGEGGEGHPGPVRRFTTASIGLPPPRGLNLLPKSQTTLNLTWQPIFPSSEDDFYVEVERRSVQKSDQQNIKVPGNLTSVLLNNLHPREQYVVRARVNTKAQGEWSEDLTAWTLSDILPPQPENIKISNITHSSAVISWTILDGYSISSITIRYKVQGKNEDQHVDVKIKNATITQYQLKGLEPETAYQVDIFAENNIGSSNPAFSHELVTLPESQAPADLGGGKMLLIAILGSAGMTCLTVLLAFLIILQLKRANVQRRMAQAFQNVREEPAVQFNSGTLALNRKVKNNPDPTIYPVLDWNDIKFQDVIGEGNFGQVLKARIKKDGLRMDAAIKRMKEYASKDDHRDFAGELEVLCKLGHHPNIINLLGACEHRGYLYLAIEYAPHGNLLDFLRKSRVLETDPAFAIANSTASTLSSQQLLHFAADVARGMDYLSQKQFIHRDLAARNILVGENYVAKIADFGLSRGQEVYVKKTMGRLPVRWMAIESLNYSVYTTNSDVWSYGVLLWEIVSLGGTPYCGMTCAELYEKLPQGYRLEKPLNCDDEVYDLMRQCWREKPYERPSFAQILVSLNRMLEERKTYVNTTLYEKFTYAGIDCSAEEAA
- assayInfo: KinaseProfiler kinase inhibition assay, Tie2
- Format: biochemical
- conditions: 1 μM compound
observationType: inhibition at 1 µM (%)

Worked set:
smilesNotation: CCN1CCN(c2ccc(Nc3ncnc(Oc4cc(F)c5[nH]c(C)cc5c4F)c3C#N)nc2)CC1
measurementTarget: Tie2 (Homo sapiens, UniProt Q02763)
inhibition at 1 µM [%]: 23
--
smilesNotation: Cc1cc2c(F)c(Oc3ncnc(Nc4ccc(N5CCN(C)CC5)cc4)c3Cl)ccc2[nH]1
measurementTarget: Tie2 (Homo sapiens, UniProt Q02763)
inhibition at 1 µM [%]: 19
--
smilesNotation: Cc1cc2c(F)c(Oc3ncnc(Nc4ccc(N5CCN(C)CC5)cc4)c3N)ccc2[nH]1
measurementTarget: Tie2 (Homo sapiens, UniProt Q02763)
inhibition at 1 µM [%]: 14
--
smilesNotation: Cc1cc2c(F)c(Oc3ncnc(Nc4ccc(N5CCN(C)CC5)cn4)c3N)ccc2[nH]1
measurementTarget: Tie2 (Homo sapiens, UniProt Q02763)
inhibition at 1 µM [%]: 11

A: Cc1cc2c(F)c(Oc3cc(Nc4cccc(N5CCN(C)CC5)c4)ncn3)ccc2[nH]1
B: Cc1cc2c(F)c(Oc3ncnc(Nc4ccc(N5CCN(C)CC5)cc4)c3F)ccc2[nH]1
q: Hey, between A and B which has a smaller measured inhibition at 1 µM? Your choice should be expressed through its label.
a: B
(B: -6%, A: 70%)

A: CC(=O)Nc1ccc(Nc2cc(Oc3ccc4[nH]c(C)cc4c3F)ncn2)cc1
B: Cc1cc2c(F)c(Oc3cc(Nc4cccc(N5CCOCC5)c4)ncn3)ccc2[nH]1
q: Pick the one with the larger inhibition at 1 µM: A vs B Indicate which entry you chose by stating its label.
a: A
(A: 4%, B: 2%)

* * *

- measurementTarget: FGFR1 kinase (Homo sapiens)
- Construct: purchased Millipore (KinaseProfiler Service)
- assayInfo: KinaseProfiler kinase inhibition assay, FGFR1
- Type: biochemical
- conditions: 1 μM compound
observationType: inhibition at 1 µM (%)

smilesNotation: CCOC(=O)c1cc(Nc2cc(Oc3ccc4[nH]c(C)cc4c3F)ncn2)n[nH]1
observationType: inhibition at 1 µM
displayUnit: %
resultNumber: 59
--
smilesNotation: Cc1cc2c(F)c(Oc3cc(Nc4cc(-c5ccccc5)[nH]n4)ncn3)ccc2[nH]1
observationType: inhibition at 1 µM
displayUnit: %
resultNumber: 59
--
smilesNotation: Cc1cc2c(F)c(Oc3cc(Nc4ccc(N5CCN(C)CC5)cc4)ncn3)ccc2[nH]1
observationType: inhibition at 1 µM
displayUnit: %
resultNumber: 102
--
smilesNotation: Cc1cc2c(F)c(Oc3ncnc(Nc4ccc(N5CCNCC5)cc4)c3C#N)ccc2[nH]1
observationType: inhibition at 1 µM
displayUnit: %
resultNumber: 99
--
smilesNotation: C/C=C/c1cc(Nc2cc(Oc3ccc4[nH]c(C)cc4c3F)ncn2)n[nH]1
observationType: inhibition at 1 µM
displayUnit: %
resultNumber: 95
--
smilesNotation: Cc1cc2c(F)c(Oc3cc(Nc4cc(C5CC5)[nH]n4)ncn3)ccc2[nH]1
observationType: inhibition at 1 µM
displayUnit: %
resultNumber: 92
--
smilesNotation: Cc1cc2c(F)c(Oc3cc(Nc4ccc(N5CCNCC5)cc4)ncn3)cc(F)c2[nH]1
observationType: inhibition at 1 µM
displayUnit: %
resultNumber: 101
--
smilesNotation: Cc1cc2c(F)c(Oc3ncnc(Nc4ccc(N5CCN(C)CC5)cc4)c3F)ccc2[nH]1
observationType: inhibition at 1 µM
displayUnit: %
resultNumber: 97
--
smilesNotation: Cc1cc2c(F)c(Oc3cc(Nc4cccc(N5CCN(C)CC5)c4)ncn3)ccc2[nH]1
observationType: inhibition at 1 µM
displayUnit: %
resultNumber: 98
--
smilesNotation: Cc1cc2c(F)c(Oc3ncnc(Nc4ccc(N5CCN(C)CC5)cn4)c3C)ccc2[nH]1
observationType: inhibition at 1 µM
displayUnit: %
resultNumber: 41

a: Cc1cc2c(F)c(Oc3cc(N4CCN(c5ccc(N)cc5F)CC4)ncn3)ccc2[nH]1
b: COc1c(Nc2ccc(N3CCN(C)CC3)cn2)ncnc1Oc1ccc2[nH]c(C)cc2c1F
q: // task: argmin of inhibition at 1 µM over [ a , b ] Which one? Tell me its label.
a: a
(a: -4%, b: 16%)

A: CNC(=O)c1ccc(Nc2cc(Oc3ccc4[nH]c(C)cc4c3F)ncn2)cc1
B: COc1c(Nc2ccc(N3CCN(C)CC3)cc2)ncnc1Oc1ccc2[nH]c(C)cc2c1F
q: API: POST /compare with A and B ; response names the item with higher inhibition at 1 µM. Give the chosen item's label as your response.
a: A
(A: 89%, B: 48%)

a: CCN1CCN(c2ccc(Nc3ncnc(Oc4ccc5c(cc(C)n5C)c4F)c3C#N)cc2)CC1
b: Cc1cc2c(F)c(Oc3ncnc(Nc4ccc(N5CCN(C)CC5)cn4)c3N)ccc2[nH]1
c: Cc1cc2c(F)c(Oc3ncnc(Nc4ccc(N5CCN(C)CC5)cc4)c3N)ccc2[nH]1
q: rank_up(items): orders items by reported inhibition at 1 µM in ascending numerical order. Use the labels to give the requested order.
a: b, c, a

* * *

- measurementTarget: FGFR1 kinase (Homo sapiens, UniProt P11362)
- Construct: purchased Millipore (KinaseProfiler Service)
- Sequence (P11362 22-822): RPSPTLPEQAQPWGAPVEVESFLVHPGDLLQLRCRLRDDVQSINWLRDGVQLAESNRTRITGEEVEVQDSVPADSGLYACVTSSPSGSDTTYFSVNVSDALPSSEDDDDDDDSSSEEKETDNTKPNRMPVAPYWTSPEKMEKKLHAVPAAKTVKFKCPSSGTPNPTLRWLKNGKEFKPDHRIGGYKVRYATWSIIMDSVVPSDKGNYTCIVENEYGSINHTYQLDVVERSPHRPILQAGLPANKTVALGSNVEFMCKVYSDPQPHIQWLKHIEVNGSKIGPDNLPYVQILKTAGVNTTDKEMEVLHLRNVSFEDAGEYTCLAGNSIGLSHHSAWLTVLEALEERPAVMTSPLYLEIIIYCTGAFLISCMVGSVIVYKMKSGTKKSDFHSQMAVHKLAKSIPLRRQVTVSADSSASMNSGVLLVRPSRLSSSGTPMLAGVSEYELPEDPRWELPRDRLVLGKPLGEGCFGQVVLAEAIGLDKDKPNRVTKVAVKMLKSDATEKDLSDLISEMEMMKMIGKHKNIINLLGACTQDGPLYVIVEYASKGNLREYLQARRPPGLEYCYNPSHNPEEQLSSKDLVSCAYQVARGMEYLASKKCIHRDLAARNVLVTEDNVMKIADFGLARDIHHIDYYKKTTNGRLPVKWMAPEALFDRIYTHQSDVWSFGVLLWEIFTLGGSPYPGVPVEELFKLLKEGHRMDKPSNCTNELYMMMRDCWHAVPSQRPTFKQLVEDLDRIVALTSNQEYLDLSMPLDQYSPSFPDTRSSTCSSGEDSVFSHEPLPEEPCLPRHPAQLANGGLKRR
- assayInfo: KinaseProfiler kinase inhibition assay, FGFR1
- Type: biochemical
- conditions: 1 μM compound
observationType: inhibition at 1 µM (%)

smilesNotation: CCN1CCN(c2ccc(Nc3ncnc(Oc4ccc5c(cc(C)n5C)c4F)c3F)cc2)CC1
observationType: inhibition at 1 µM
resultNumber: 91
--
smilesNotation: Cc1cc2c(F)c(Oc3cc(Nc4cc(-c5ccco5)[nH]n4)ncn3)ccc2[nH]1
observationType: inhibition at 1 µM
resultNumber: 92
--
smilesNotation: COc1cc(CCc2cc(Nc3cc(Oc4ccc5[nH]c(C)cc5c4F)ncn3)n[nH]2)cc(OC)c1
observationType: inhibition at 1 µM
resultNumber: 98
--
smilesNotation: CCN1CCN(c2ccc(Nc3cc(Oc4cc(F)c5[nH]c(C)cc5c4F)ncn3)cc2)CC1
observationType: inhibition at 1 µM
resultNumber: 99
--
smilesNotation: Cc1cc2c(F)c(Oc3cc(Nc4ccc(N5CCNCC5)cc4)ncn3)ccc2[nH]1
observationType: inhibition at 1 µM
resultNumber: 99
--
smilesNotation: Cc1cc2c(F)c(Oc3ncnc(Nc4ccc(N5CCN(C)CC5)cc4)c3C)ccc2[nH]1
observationType: inhibition at 1 µM
resultNumber: 91
--
smilesNotation: CC(=O)N1CCN(c2ccc(Nc3cc(Oc4cc(F)c5[nH]c(C)cc5c4F)ncn3)cc2)CC1
observationType: inhibition at 1 µM
resultNumber: 89
--
smilesNotation: COc1ccc(-c2cc(Nc3cc(Oc4ccc5[nH]c(C)cc5c4F)ncn3)n[nH]2)cc1OC
observationType: inhibition at 1 µM
resultNumber: 93

Sourced from patent US10766879B2
